From: patent US20240287177A1

- Tgt: T1, recombinant human NKp30 extracellular domain, his-tagged (human, UniProt O14931 19-135)
- T1 construct: BLI used human NKp30 bought from Abcam (his-tagged ECD); also called rh NKp30 ECD; human NKp30 (Abcam); not shown: his tag
- T1 sequence: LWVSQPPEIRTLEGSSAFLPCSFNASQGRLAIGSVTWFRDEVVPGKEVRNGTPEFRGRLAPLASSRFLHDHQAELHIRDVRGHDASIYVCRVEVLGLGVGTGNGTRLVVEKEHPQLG
- Test name: BLI as in Example 1
pKd: −log10 of the molar value.
Measured metric: pKd

Binder | Meas value
VHH2.11 (humanized) (VHH, expressed and measured by BLI 'as described in Experiment 1' (there: bispecific SEEDbody on anti-human Fc sensors)) VHH: EVQLVESGGGVVQPGGSLRLSCAASGQTWTNYHIGWFRQAPGKGLESVASIEWGGRGTYATDSVKGRFTISRDNAKNTVYLQMNSLRAEDTAVYYCAAQSSSRSPLESNYDYWGQGTLVTVSS | 8.33
VHH2.15 (humanized) (VHH, expressed and measured by BLI 'as described in Experiment 1' (there: bispecific SEEDbody on anti-human Fc sensors)) VHH: EVQLVESGGGVVQPGGSLRLSCAASGQTWTNYHIGWFRQAPGKGLESVASIEWGGRGTYATDSVKGRFTISRDNAKNTLYLQMNSLRAEDTAVYYCAAQSSSRSPLESNYDYWGQGTLVTVSS | 7.91
VHH2.2 (humanized) (VHH, expressed and measured by BLI 'as described in Experiment 1' (there: bispecific SEEDbody on anti-human Fc sensors)) VHH: EVQLVESGGGVVQPGGSLRLSCAVSGQTWTNYHIGWFRQAPGKARESVASIEWGGRGTYATDSVKGRFTISRDNAKNTVYLQMNSLRAEDTAVYYCAAQSSSRSPLESNYDYWGQGTLVTVSS | 8.68
VHH2.1 (humanized) (VHH, expressed and measured by BLI 'as described in Experiment 1' (there: bispecific SEEDbody on anti-human Fc sensors)) VHH: EVQLVESGGGVVQAGGSLRLSCAVSGQTWTNYHIGWFRQAPGKARESVASIEWGGRGTYATDSVKGRFTISRDNAKNTVYLQMNSLRAEDTAVYYCAAQSSSRSPLESNYDYWGQGTLVTVSS | 8.54
